All values here come from paper PMC7385626.

test system: HT29; experiment: BrdU Cell Proliferation Assay (BCPA); format: cell-based, human; settings: Homo sapiens, HT-29; BrdU ELISA, 24 h; mean ± SD of three experiments
ENDPOINT: pIC50
In simple prose, pIC50 is minus the logarithm base ten of a concentration in moles per litre.

Problem: Name the recorded pIC50 for O=c1[nH]cc(F)c(=O)[nH]1 [5FU, 5-fluorouracil, reference compound] .
Solution: 3.59

---

test: in vitro; details: human (HT-29, HeLa), rat (C6), African green monkey (Vero)
ENDPOINT: cytotoxicity

Problem: Name the recorded cytotoxicity for O=c1[nH]cc(F)c(=O)[nH]1 [5FU, 5-fluorouracil, reference compound] .
Solution: 15 to 25%

---

System: C6
Test: BrdU Cell Proliferation Assay (BCPA)
Type: cell-based
Details: Rattus norvegicus, C6; BrdU ELISA, 24 h; mean ± SD of three experiments
Description: The antiproliferative activities of Ag(I) molecules and the starting molecules of the parent molecules, N-bishydeten and [Ag(CN)2]^− compound, on cells, were monitored utilizing by the BrdU Cell Proliferation Assay (BCPA) (Fig. 6). […] The cell suspension including 5×10^3 cells in 100 µL was supplied into the well cell plates (96-well cell). […] The antiproliferative activities of the 2, 3, 4 and [Ag(CN)2]^− were determined with using BrdU Cell proliferation ELISA Kit conforming to manufacturer’s assay. […]
ENDPOINT: pIC50
In simple prose, pIC50 is minus the logarithm base ten of a concentration in moles per litre.

Problem: Name the recorded pIC50 for O=c1[nH]cc(F)c(=O)[nH]1 [5FU, 5-fluorouracil, reference compound] .
Solution: 3.66

---

test system: HeLa; experiment: BrdU Cell Proliferation Assay (BCPA); format: cell-based; details: Homo sapiens, HeLa; BrdU ELISA, 24 h; mean ± SD of three experiments
ENDPOINT: pIC50
In simple prose, pIC50 is minus the logarithm base ten of a concentration in moles per litre.

Problem: Name the recorded pIC50 for O=c1[nH]cc(F)c(=O)[nH]1 [5FU, 5-fluorouracil, reference compound] .
Solution: 3.56
